All figures here come from patent US20240383922A1.

biological target: GDP-loaded KRAS-G12C (Homo sapiens (Human), UniProt P01116, G12C); assay: KRAS (GDP) biochemical TR-FRET probe displacement assay, KRAS-G12C; details: 2 hours
Sequence (P01116-2 other isoform, or with tags, fused parts or gaps G12C): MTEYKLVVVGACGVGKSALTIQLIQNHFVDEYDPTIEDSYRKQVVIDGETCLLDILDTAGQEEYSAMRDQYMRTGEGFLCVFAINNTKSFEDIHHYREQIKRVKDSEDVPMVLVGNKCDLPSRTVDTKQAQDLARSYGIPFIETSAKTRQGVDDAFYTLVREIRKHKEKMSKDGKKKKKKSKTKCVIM
measured.endpoint: IC50 (pM)

{"compound": "C#Cc1c(F)ccc2cc(N)cc(-c3nc4c5c(nc(OC[C@@]67CCCN6C[C@H](F)C7)nc5c3F)N3CCCOC[C@@H]3CC4)c12 [Example 7-1]", "measured.endpoint": "IC50", "measurement": 900}
{"compound": "C#Cc1c(F)ccc2cc(O)cc(-c3nc4c5c(nc(OC[C@@]67CCCN6C[C@H](F)C7)nc5c3F)N3CCOCC[C@@H]3CC4)c12 (single isomer, unassigned) [Example 9-2]", "measured.endpoint": "IC50", "measurement": 60}

P = C#Cc1c(F)ccc2cc(N)cc(-c3c(F)c4c5c(nc(OC[C@@]67CCCN6C[C@H](F)C7)nc5c3F)N3CCCOC[C@@H]3CC4)c12 [Example 7-12]
Q = C#Cc1c(F)ccc2cccc(-c3nc4c5c(nc(OC[C@@]67CCCN6[C@H](COC(=O)N6CCCCC6)CC7)nc5c3F)N3CCCOC[C@@H]3CC4)c12 [Example 16-2]
R = C#Cc1c(F)ccc2cc(O)cc(-c3nc4c5c(nc(OC[C@@]67CCCN6C[C@H](F)C7)nc5c3F)N3CCOCCC3CC4)c12 (mixture of isomers) [Example 6-13]
Exam item: list the entries in increasing order of IC50. Rank them, then answer with their labels in that order.
R, Q, P
(R: 60 pM, Q: 190 pM, P: 4580 pM)

* * *

target: GDP-loaded KRAS-G12V (Homo sapiens (Human), UniProt P01116, G12V); assay: KRAS (GDP) biochemical TR-FRET probe displacement assay, KRAS-G12V; settings: 2 hours
Sequence (P01116-2 other isoform, or with tags, fused parts or gaps G12V): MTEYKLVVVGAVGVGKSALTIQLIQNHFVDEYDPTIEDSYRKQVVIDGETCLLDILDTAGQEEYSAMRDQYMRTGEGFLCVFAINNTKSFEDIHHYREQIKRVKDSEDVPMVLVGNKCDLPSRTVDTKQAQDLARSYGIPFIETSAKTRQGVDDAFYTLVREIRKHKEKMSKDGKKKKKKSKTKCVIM
pIC50: −log10 of the molar value.
measured.endpoint: pIC50

{"molecule": "C#Cc1c(F)ccc2cccc(-c3nc4c5c(nc(OC[C@@]67CCCN6[C@H](COC(=O)N(CC)CC)CC7)nc5c3F)N3CCCOC[C@@H]3CC4)c12", "assay.system": "GDP-loaded KRAS-G12V (Homo sapiens (Human), UniProt P01116, G12V)", "pIC50": 7.51}
{"molecule": "C#Cc1c(F)ccc2cc(O)cc(-c3nc4c5c(nc(OC[C@@]67CCCN6[C@H](COc6cc(C(F)(F)F)ncn6)CC7)nc5c3F)N3CCCOC[C@@H]3C=C4C)c12", "assay.system": "GDP-loaded KRAS-G12V (Homo sapiens (Human), UniProt P01116, G12V)", "pIC50": 8.56}
{"molecule": "C#Cc1c(F)ccc2cc(O)cc(-c3nc4c5c(nc(OC[C@@]67CCCN6C[C@H](F)C7)nc5c3F)N3CCOCC[C@@H]3CC4)c12 (single isomer, unassigned)", "assay.system": "GDP-loaded KRAS-G12V (Homo sapiens (Human), UniProt P01116, G12V)", "pIC50": 10.00}

a = C#Cc1c(F)ccc2cc(O)cc(-c3nc4c5c(nc(OC[C@@]67CCCN6[C@H](COc6cc(C(F)(F)F)cnn6)CC7)nc5c3F)N3CCCOC[C@@H]3C=C4C)c12
b = C#Cc1c(F)ccc2cc(O)cc(-c3nc4c5c(nc(OCC6(CN7CCCCC7)CC6)nc5c3F)N3CCCOC[C@@H]3CC4)c12
For the two items a and b , which reports the higher pIC50 value? State your choice using its label.
a

A = C#Cc1c(F)ccc2cc(N)cc(-c3nc4c5c(nc(OC[C@@]67CCCN6[C@H](COc6cc(C(F)(F)F)cnn6)CC7)nc5c3F)N3CCCOC[C@@H]3CC4)c12
B = C#Cc1c(F)ccc2cc(O)cc(-c3nc4c5c(nc(OCC67CCCN6[C@H](COCC(F)(F)F)CC7)nc5c3F)N3CCCOCC3CC4)c12 (stereo partly drawn)
C = C#Cc1c(F)ccc2cc(O)cc(-c3nc4c5c(nc(OC[C@@]67CCCN6C/C(=C\F)C7)nc5c3F)N3CCCOC[C@@H]3CC4)c12
D = C#Cc1c(F)ccc2cc(O)cc(-c3nc4c5c(nc(OC[C@@]67CCCN6C[C@H](F)C7)nc5c3F)N3CCOCCC3CC4)c12 (mixture of isomers)
Given 4 molecules, produce a descending ranking by pIC50. Rank them, then answer with their labels in that order.
C, D, A, B

P = C#Cc1c(F)ccc2cc(O)cc(-c3nc4c5c(nc(OC[C@@]67CCCN6[C@H](COC(C(F)(F)F)(C(F)(F)F)C(F)(F)F)CC7)nc5c3F)N3CCCOC[C@@H]3CC4)c12
Q = C#Cc1c(F)ccc2cc(O)cc(C3=C(F)C4N=C(OC[C@@]56CCCN5C[C@H](F)C6)N=C5C4C(=C3F)C(C)=C[C@H]3COCCCN53)c12 (stereo partly drawn)
For the two items P and Q , which reports the higher pIC50 value? State your choice using its label.
P

* * *

target: GDP-loaded KRAS-G12D (Homo sapiens (Human), UniProt P01116, G12D); assay: KRAS (GDP) biochemical TR-FRET probe displacement assay, KRAS-G12D; conditions: 2 hours
Sequence (P01116-2 other isoform, or with tags, fused parts or gaps G12D): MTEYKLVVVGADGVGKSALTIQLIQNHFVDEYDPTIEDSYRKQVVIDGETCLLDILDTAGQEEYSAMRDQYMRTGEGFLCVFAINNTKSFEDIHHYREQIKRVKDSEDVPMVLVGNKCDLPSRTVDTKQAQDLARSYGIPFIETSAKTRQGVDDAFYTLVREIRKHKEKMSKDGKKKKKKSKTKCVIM
pIC50: −log10 of the molar value.
measured.endpoint: pIC50

{"compound": "C#Cc1c(F)ccc2cc(N)cc(-c3nc4c5c(nc(OC[C@@]67CCCN6[C@H](COc6cc(C(F)(F)F)ncn6)CC7)nc5c3F)N3CCCOC[C@@H]3CC4)c12 [Example 7-4]", "pIC50": 8.35}

A = C#Cc1c(F)ccc2cc(N)cc(-c3nc4c5c(nc(OC[C@@]67CCCN6C[C@H](F)C7)nc5c3F)N3CCCOC[C@@H]3CC4)c12 [Example 7-1]
B = C#Cc1c(F)ccc2cc(O)cc(-c3nc4c5c(nc(OCC67CCCN6[C@H](COCC(F)(F)F)CC7)nc5c3F)N3CCCOCC3CC4)c12 (stereo partly drawn) [Example 22-8]
For the two items A and B , which reports the higher pIC50 value? State your choice using its label.
B
(B: 9.44, A: 8.56)

* * *

Target: GDP-loaded KRAS-G12C (Homo sapiens (Human), UniProt P01116, G12C)
Experiment: KRAS (GDP) biochemical TR-FRET probe displacement assay, KRAS-G12C
Settings: 2 hours
Description: KRAS (GDP) Biochemical Assays: Compounds were serially diluted (1:3) in DMSO. The LabCyte ECHO Acoustic dispenser was used to pre-spot the assay plates (384-well Non-Binding Surface plates, Corning, Catalog #3824) with 50 nL of compound. […] The plates were incubated at room temperature for 2 hours before measuring TR-FRET ratio (665 nm/615 nm) on the Envision multimode plate reader. […]
measured.endpoint: IC50 (nM)

{"compound": "C#Cc1c(F)ccc2cc(O)cc(-c3nc4c5c(nc(OCC67CCCN6[C@H](COC(C(F)(F)F)C(F)(F)F)CC7)nc5c3F)N3CCCOCC3CC4)c12 (some centres unmarked)", "IC50 / nM": 34.7}

A = C#Cc1c(F)ccc2cc(O)cc(-c3nc4c5c(nc(OCC6(CN7CCCCC7)CC6)nc5c3F)N3CCCOC[C@@H]3CC4)c12
B = C#Cc1c(F)ccc2cc(O)cc(-c3nc4c5c(nc(OCC67CCCN6[C@H](COCC(F)(F)F)CC7)nc5c3F)N3CCCOCC3CC4)c12 (some centres unmarked)
C = C#Cc1c(F)ccc2cc(O)cc(-c3nc4c5c(nc(OC[C@@]67CCCN6C/C(=C\F)C7)nc5c3F)N3CCCOC[C@@H]3CC4)c12
D = C#Cc1c(F)ccc2cccc(-c3nc4c5c(nc(OCC6(CN7CCCCC7)CC6)nc5c3F)N3CCCOC[C@@H]3CC4)c12
Given 4 compounds, produce a descending ranking by IC50. Rank them, then answer with their labels in that order.
A, D, B, C
(A: 37.1 nM, D: 13.4 nM, B: 0.67 nM, C: 0.05 nM)

* * *

system: cellular pERK in Kuramochi (WT KRAS) cell-line; experiment: Cell based pERK assay (HTRF), Kuramochi; settings: Kuramochi (WT KRAS) cells, 2 hours incubation
pEC50: −log10 of the molar value.
measured.endpoint: pEC50

{"molecule": "C#Cc1c(F)ccc2cc(N)cc(-c3nc4c5c(nc(OC[C@@]67CCCN6C[C@H](F)C7)nc5c3F)N3CCCOC[C@@H]3C[C@H]4C)c12", "pEC50": 8.14}
{"molecule": "C#Cc1c(F)ccc2cc(O)cc(-c3nc4c5c(nc(OC[C@@]67CCCN6C[C@H](F)C7)nc5c3F)N3CCCCCC3CC4)c12 (mixture of isomers)", "pEC50": 8.03}
{"molecule": "C#Cc1c(F)c(F)cc2cc(O)cc(-c3nc4c5c(nc(OC[C@@]67CCCN6C[C@H](F)C7)nc5c3F)N3CCCOC[C@@H]3CC4)c12", "pEC50": 8.58}
{"molecule": "C#Cc1c(F)ccc2cc(O)cc(-c3nc4c5c(nc(O[C@@H](C)[C@@H]6CCCN6C)nc5c3F)N3CCCOC[C@@H]3CC4)c12", "pEC50": 7.32}
{"molecule": "C#Cc1c(F)ccc2cc(O)cc(-c3nc4c5c(nc(OCC67CCCN6CCC7)nc5c3F)N3CCCOC[C@@H]3CC4)c12", "pEC50": 7.78}
{"molecule": "C#Cc1c(F)ccc2cc(O)cc(-c3nc4c5c(nc(OC[C@@]67CCCN6C[C@H](F)C7)nc5c3F)N3CCCOC[C@H]3CC4)c12", "pEC50": 7.35}
{"molecule": "C#Cc1c(F)ccc2cc(O)cc(-c3c(F)c4c5c(nc(OC[C@@]67CCCN6C[C@H](F)C7)nc5c3F)N3CCCOC[C@@H]3CC4)c12 (atropisomer, axis not shown) [Example 24-2]", "pEC50": 8.58}
{"molecule": "C#Cc1c(F)ccc2cccc(-c3nc4c5c(nc(OC[C@@]67CCCN6[C@H](COC(=O)N6CCCCC6)CC7)nc5c3F)N3CCCOC[C@@H]3CC4)c12", "pEC50": 8.70}

a = C#Cc1c(F)ccc2cc(O)cc(-c3nc4c5c(nc(OC[C@@]67CCCN6C[C@@H](F)C7)nc5c3F)N3CCCOC[C@@H]3CC4)c12
b = C#Cc1c(F)ccc2cc(O)cc(-c3nc4c5c(nc(OC[C@@]67CCCN6C[C@H](F)C7)nc5c3F)N3CCCCC[C@H]3CC4)c12
Returns the identifier with the smallest measured pEC50 among a and b . State your choice using its label.
b
(b: 6.40, a: 8.09)
